Assign Ki to each entry below.
# SYSTEM UNDER TEST: human A1 AR (Homo sapiens)
# Sequence (P30542 1-326): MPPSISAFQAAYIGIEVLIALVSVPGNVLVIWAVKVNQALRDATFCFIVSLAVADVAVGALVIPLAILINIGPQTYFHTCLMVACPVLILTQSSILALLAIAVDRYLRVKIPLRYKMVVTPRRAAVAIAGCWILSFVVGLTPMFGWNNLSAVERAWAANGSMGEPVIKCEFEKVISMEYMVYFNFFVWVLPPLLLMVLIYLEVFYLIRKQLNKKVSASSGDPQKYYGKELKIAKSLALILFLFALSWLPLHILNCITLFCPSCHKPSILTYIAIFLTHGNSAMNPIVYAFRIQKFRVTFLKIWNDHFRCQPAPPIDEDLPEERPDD
# EXPERIMENTAL PROTOCOL: Radioligand competition binding (125I-ABA) to human A1 AR in CHO K1 cell membranes
# SETUP CONDITIONS: A1 ± SEM, Ki from competition binding, 125I-ABA, CHO K1 cell membranes
Respond with the bare value in nM.

State, in one line, measured Ki of CCNC(=O)[C@H]1O[C@@H](n2cnc3c(N)nc(C#CCC4CCC(C(=O)O)CC4)nc32)C(O)C1O (stereo in doubt) [ATL-146a]
189

State, in one line, measured Ki of CCNC(=O)[C@H]1O[C@@H](n2cnc3c(N)nc(C#CC4(O)CCC(CC)CC4)nc32)C(O)C1O (stereo in doubt)
3.8

State, in one line, measured Ki of CCNC(=O)[C@H]1O[C@@H](n2cnc3c(N)nc(C#CCN4CCN(c5ncccn5)CC4)nc32)C(O)C1O (stereo in doubt)
15.3

State, in one line, measured Ki of CCNC(=O)[C@H]1O[C@@H](n2cnc3c(N)nc(C#CCC4CCC(CO)CC4)nc32)C(O)C1O (stereo in doubt)
19

State, in one line, measured Ki of CCNC(=O)[C@H]1O[C@@H](n2cnc3c(N)nc(C#CCC4CCC(C(N)=O)CC4)nc32)C(O)C1O (stereo in doubt)
36

State, in one line, measured Ki of CCNC(=O)[C@H]1O[C@@H](n2cnc3c(N)nc(C#CC[C@H]4CC[C@H](COC(=O)OC)CC4)nc32)C(O)C1O (stereo partly shown)
100

State, in one line, measured Ki of CCNC(=O)[C@H]1O[C@@H](n2cnc3c(N)nc(C#CCC4CCC(COC(C)=O)CC4)nc32)C(O)C1O (stereo in doubt)
71

State, in one line, measured Ki of CCNC(=O)[C@H]1O[C@@H](n2cnc3c(N)nc(C#C[C@]4(O)CCC[C@@H](C)C4)nc32)C(O)C1O (stereo in doubt)
4.8

State, in one line, measured Ki of CCNC(=O)[C@H]1O[C@@H](n2cnc3c(N)nc(C#CC4(O)CC(C)(C)CC(C)(C)C4)nc32)C(O)C1O (stereo in doubt)
784

State, in one line, measured Ki of CCNC(=O)[C@H]1O[C@@H](n2cnc3c(N)nc(C#CCC4CCC(C(=O)OCCN)CC4)nc32)C(O)C1O (stereo in doubt)
15.1

State, in one line, measured Ki of CCNC(=O)[C@H]1O[C@@H](n2cnc3c(N)nc(C#CCC4CCN(C(=O)OCC)CC4)nc32)C(O)C1O (stereo in doubt)
134

State, in one line, measured Ki of CCNC(=O)[C@H]1O[C@@H](n2cnc3c(N)nc(C#CC4(O)CCCCC4C)nc32)C(O)C1O (single isomer, unassigned) [JR-3181B]
24.2

State, in one line, measured Ki of CCNC(=O)[C@H]1O[C@@H](n2cnc3c(N)nc(C#CCC4CCC(C)(C(=O)OC)CC4)nc32)C(O)C1O (single isomer, unassigned) [JR-3067B]
121

State, in one line, measured Ki of CCNC(=O)[C@H]1O[C@@H](n2cnc3c(N)nc(C#CC4(O)CCCCNC4=O)nc32)C(O)C1O (single isomer, unassigned) [JR-3243B]
12

State, in one line, measured Ki of CCNC(=O)[C@H]1O[C@@H](n2cnc3c(N)nc(C#CCN4CCN(C(=O)OC(C)(C)C)CC4)nc32)C(O)C1O (stereo in doubt)
9.15

State, in one line, measured Ki of CCNC(=O)[C@H]1O[C@@H](n2cnc3c(N)nc(C#CCC4CCC(C(=O)OCCNC(=O)OC(C)(C)C)CC4)nc32)C(O)C1O (stereo in doubt)
107

State, in one line, measured Ki of CCNC(=O)[C@H]1O[C@@H](n2cnc3c(N)nc(C#CCC4CCC(C(=O)OC)CC4)nc32)C(O)C1O (stereo in doubt) [ATL-146e]
77

State, in one line, measured Ki of CCNC(=O)[C@H]1O[C@@H](n2cnc3c(N)nc(C#CC4(O)CCCCC4C)nc32)C(O)C1O (single isomer, unassigned) [JR-3177A]
8.7

State, in one line, measured Ki of CCNC(=O)[C@H]1O[C@@H](n2cnc3c(N)nc(C#CCC4CCC(C(C)O)CC4)nc32)C(O)C1O (stereo in doubt)
52.3

State, in one line, measured Ki of CCNC(=O)[C@H]1O[C@@H](n2cnc3c(N)nc(C#CC4(O)CCC(C(C)(C)C)CC4)nc32)C(O)C1O (stereo in doubt)
14.7

State, in one line, measured Ki of CCNC(=O)[C@H]1O[C@@H](n2cnc3c(N)nc(C#CCC4CCC(C(C)=O)CC4)nc32)C(O)C1O (stereo in doubt)
28.7

State, in one line, measured Ki of CCNC(=O)[C@H]1O[C@@H](n2cnc3c(N)nc(C#CCN4CCC(C(=O)OCC)CC4)nc32)C(O)C1O (stereo in doubt)
14.4

State, in one line, measured Ki of CCNC(=O)[C@H]1O[C@@H](n2cnc3c(N)nc(C#C[C@@]4(O)CCC[C@@H](C)C4)nc32)C(O)C1O (stereo partly shown)
19.5

State, in one line, measured Ki of CCNC(=O)[C@H]1O[C@@H](n2cnc3c(N)nc(C#CC4(O)CCC(c5ccccc5)CC4)nc32)C(O)C1O (stereo in doubt)
10.9

State, in one line, measured Ki of CCNC(=O)[C@H]1O[C@@H](n2cnc3c(N)nc(C#CCC4CCC(CN(C)C)CC4)nc32)C(O)C1O (stereo in doubt)
14

* * *

# SYSTEM UNDER TEST: A3 AR (Homo sapiens)
# Sequence (P0DMS8 1-318): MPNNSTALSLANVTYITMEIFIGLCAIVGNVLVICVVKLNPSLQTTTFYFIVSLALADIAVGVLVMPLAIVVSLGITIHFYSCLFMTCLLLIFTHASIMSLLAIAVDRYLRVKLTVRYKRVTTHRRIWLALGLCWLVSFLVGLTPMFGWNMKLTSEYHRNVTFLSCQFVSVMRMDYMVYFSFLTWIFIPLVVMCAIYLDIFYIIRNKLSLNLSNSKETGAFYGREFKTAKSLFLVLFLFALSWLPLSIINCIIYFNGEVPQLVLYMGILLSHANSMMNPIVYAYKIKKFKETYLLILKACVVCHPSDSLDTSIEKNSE
# EXPERIMENTAL PROTOCOL: Radioligand competition binding (125I-ABA) to human A3 AR in HEK 293 cell membranes
# SETUP CONDITIONS: A3 ± SEM, Ki from competition binding, 125I-ABA, HEK 293 cell membranes
EXPERIMENTAL ENDPOINT: Ki (µM)
Respond with the bare value in µM.

State, in one line, measured Ki of CCNC(=O)[C@H]1O[C@@H](n2cnc3c(N)nc(C#CC4(O)CCC(CC)CC4)nc32)C(O)C1O (stereo in doubt) [JR-3149]
0.0073

State, in one line, measured Ki of CCNC(=O)[C@H]1O[C@@H](n2cnc3c(N)nc(C#CCN4CCCCC4C(=O)OC)nc32)C(O)C1O (stereo partly shown) [JR-3253]
0.0313

State, in one line, measured Ki of CCNC(=O)[C@H]1O[C@@H](n2cnc3c(N)nc(C#CCC4CCC(C(=O)OCCN)CC4)nc32)C(O)C1O (stereo in doubt) [JR-3033]
0.026

State, in one line, measured Ki of CCNC(=O)[C@H]1O[C@@H](n2cnc3c(N)nc(C#CCC4CCC(C(C)O)CC4)nc32)C(O)C1O (stereo in doubt) [JR-3121]
0.071

* * *

# SYSTEM UNDER TEST: human A1 AR (Homo sapiens)
# EXPERIMENTAL PROTOCOL: Radioligand competition binding (125I-ABA) to human A1 AR in CHO K1 cell membranes
# SETUP CONDITIONS: selectivity ratio A1 over A2A
Assign A1/A2A to each entry below.

State, in one line, measured A1/A2A of CCNC(=O)[C@H]1O[C@@H](n2cnc3c(N)nc(C#CCN4CCCCC4C(=O)OC)nc32)C(O)C1O (stereo partly shown)
4.2

State, in one line, measured A1/A2A of CCNC(=O)[C@H]1O[C@@H](n2cnc3c(N)nc(C#CCC4CCC(CC)CC4)nc32)C(O)C1O (stereo in doubt)
9.2

State, in one line, measured A1/A2A of CCNC(=O)[C@H]1O[C@@H](n2cnc3c(N)nc(C#CCC4CCC(C(=O)OCCN)CC4)nc32)C(O)C1O (stereo in doubt)
9.7

State, in one line, measured A1/A2A of CCNC(=O)[C@H]1O[C@@H](n2cnc3c(N)nc(C#CCC4CCN(C(=O)OC(C)C)CC4)nc32)C(O)C1O (stereo in doubt)
116.4
